// provenance: ChEMBL document CHEMBL1139351

# procedureSummary: Inhibition of tubulin polymerization assessed as ratio of IC50 for compound to IC50 for vinblastin by UV spectrophotometry
Recorded Ratio IC50 values for a group of molecules are listed next.
Respond using a number only.

Lookup: What value of measured Ratio IC50 is listed for `CCC1=C[C@@H]2C[C@](C(=O)OC)(c3cc4c(cc3OC)N(C)[C@H]3[C@@](O)(C(=O)OC)[C@H](OC(C)=O)[C@]5(CC)C=CCN6CC[C@]43[C@@H]65)c3[nH]c4ccccc4c3CC[N+](CC(=O)N3CCC[C@H]3C(=O)N[C@H](C(=O)N[C@@H](CC(=O)O)C(=O)O)[C@@H](C)CC)(C1)C2` ?
Found: 2

Lookup: Ok, now `CCC1=C[C@@H]2C[C@](C(=O)OC)(c3cc4c(cc3OC)N(C)[C@H]3[C@@](O)(C(=O)OC)[C@H](OC(C)=O)[C@]5(CC)C=CCN6CC[C@]43[C@@H]65)c3[nH]c4ccccc4c3CC[N+](CC(=O)N3CCC[C@H]3C(=O)N[C@H](C(=O)O)[C@@H](C)CC)(C1)C2`
Found: 1.7

Lookup: Continue with `CCC1=C[C@@H]2C[C@](C(=O)OC)(c3cc4c(cc3OC)N(C)[C@H]3[C@@](O)(C(=O)OC)[C@H](OC(C)=O)[C@]5(CC)C=CCN6CC[C@]43[C@@H]65)c3[nH]c4ccccc4c3C[N+](CC(=O)N3CCC[C@H]3C(=O)N[C@H](C(=O)N[C@@H](CC(=O)OCc3ccccc3)C(=O)OCc3ccccc3)[C@@H](C)CC)(C1)C2`
Found: 1.8

----------
# procedureSummary: Inhibition of tubulin polymerization assessed as ratio of IC50 for compound to IC50 for vinblastin by UV spectrophotometry
assayReadout: Ratio IC50

{"compound": "CCC1=C[C@@H]2C[C@](C(=O)OC)(c3cc4c(cc3OC)N(C)[C@H]3[C@@](O)(C(=O)OC)[C@H](OC(C)=O)[C@]5(CC)C=CCN6CC[C@]43[C@@H]65)c3[nH]c4ccccc4c3CC[N+](CC(=O)N3CCC[C@H]3C(=O)N[C@H](C(=O)OCc3ccccc3)[C@@H](C)CC)(C1)C2", "Ratio IC50": 1.4}
{"compound": "CCC1=C[C@@H]2C[C@](C(=O)OC)(c3cc4c(cc3OC)N(C)[C@H]3[C@@](O)(C(=O)OC)[C@H](OC(C)=O)[C@]5(CC)C=CCN6CC[C@]43[C@@H]65)c3[nH]c4ccccc4c3C[N+](CC(=O)N3CCC[C@H]3C(=O)N[C@H](C(=O)N[C@@H](CC(=O)O)C(=O)O)[C@@H](C)CC)(C1)C2", "Ratio IC50": 19.4}

[P] CCC1=C[C@@H]2C[C@](C(=O)OC)(c3cc4c(cc3OC)N(C)[C@H]3[C@@](O)(C(=O)OC)[C@H](OC(C)=O)[C@]5(CC)C=CCN6CC[C@]43[C@@H]65)c3[nH]c4ccccc4c3C[N+](CC(=O)N3CCC[C@H]3C(=O)N[C@H](C(=O)OCc3ccccc3)[C@@H](C)CC)(C1)C2
[Q] CC[C@]1(O)C[C@@H]2CN(CCc3c([nH]c4ccccc34)[C@@](C(=O)OC)(c3cc4c(cc3OC)N(C)[C@H]3[C@@](O)(C(=O)OC)[C@H](OC(C)=O)[C@]5(CC)C=CCN6CC[C@]43[C@@H]65)C2)C1 [VINBLASTINE]
Lookup: Between P and Q , which one has the lower reported Ratio IC50 value? // respond with label for picked entry
Found: Q

----------
# procedureSummary: Inhibition of tubulin polymerization assessed as ratio of IC50 for compound to IC50 for vinblastin by UV spectrophotometry
assayReadout: Ratio IC50

Below are worked cases with known answers.
{"structureSmiles": "CCC1=C[C@@H]2C[C@](C(=O)OC)(c3cc4c(cc3OC)N(C)[C@H]3[C@@](O)(C(=O)OC)[C@H](OC(C)=O)[C@]5(CC)C=CCN6CC[C@]43[C@@H]65)c3[nH]c4ccccc4c3C[N+](CC(=O)N3CCC[C@H]3C(=O)OC)(C1)C2", "Ratio IC50": 2}
{"structureSmiles": "CCC1=C[C@@H]2C[C@](C(=O)OC)(c3cc4c(cc3OC)N(C)[C@H]3[C@@](O)(C(=O)OC)[C@H](OC(C)=O)[C@]5(CC)C=CCN6CC[C@]43[C@@H]65)c3[nH]c4ccccc4c3CC[N+](CC(=O)N3CCC[C@H]3C(=O)N[C@H](C(=O)N[C@@H](CC(=O)OCc3ccccc3)C(=O)OCc3ccccc3)[C@@H](C)CC)(C1)C2", "Ratio IC50": 1.3}

[a] CCC1=C[C@@H]2C[C@](C(=O)OC)(c3cc4c(cc3OC)N(C)[C@H]3[C@@](O)(C(=O)OC)[C@H](OC(C)=O)[C@]5(CC)C=CCN6CC[C@]43[C@@H]65)c3[nH]c4ccccc4c3C[N+](CC(=O)N3CCC[C@H]3C(=O)N[C@H](C(=O)O)[C@@H](C)CC)(C1)C2
[b] CCC1=C[C@@H]2C[C@](C(=O)OC)(c3cc4c(cc3OC)N(C)[C@H]3[C@@](O)(C(=O)OC)[C@H](OC(C)=O)[C@]5(CC)C=CCN6CC[C@]43[C@@H]65)c3[nH]c4ccccc4c3CC[N+](CC(=O)N3CCC[C@H]3C(=O)OC)(C1)C2
Lookup: Lower value of Ratio IC50 belongs to which: a or b ? State the label of the item chosen.
Found: b
(b: 0.9, a: 9.4)
